# Tested on: Acetylcholine broncho-spasm
# test.name: Broncho-spasm antagonist activity (Konzett and Roessler technique), acetylcholine
# Assay type: in vivo, guinea pigs
# particulars: Cavia porcellus, iv, guinea pig, i.v., read-out: Broncho-spasm 50% approx. inhibiting dose, Acetylcholine
Some molecules, each annotated with its measured ED50.

| line.notation | ED50 |
| --- | --- |
| O=C1NCC2(CCN(CCc3ccc(F)cc3)CC2)O1 | 2 mg/kg |

[in] Sample `O=C1NCC2(CCN(CCc3ccc4c(c3)OCO4)CC2)O1` — what was its ED50?
[out] > 2.5 mg/kg

[in] Could you share which ED50 value was measured for `O=C1NCC2(CCN(CCc3ccccc3)CC2)O1` ?
[out] 2 mg/kg

[in] What does the data say about its ED50? Entry: `O=C1NCC2(CCN(C(c3ccccc3)c3ccccc3)CC2)O1`
[out] > 0.5 mg/kg

[in] Look up ED50 for this molecule: `O=C1NCC2(CCN(CCOc3ccccc3)CC2)O1`
[out] > 0.5 mg/kg

[in] Consider the molecule shown here: `O=C1NCC2(CCN(CCc3cccc(C(F)(F)F)c3)CC2)O1` What is its recorded ED50?
[out] > 0.5 mg/kg

[in] Record request: ED50 value, item `O=C1NCC2(CCN(Cc3ccccc3)CC2)O1`
[out] > 0.5 mg/kg

Data provenance is patent US4028351A.
